Taken from ChEMBL document CHEMBL5518168.

- Assay: Stability in human plasma assessed as drug hydrolysis after 15 mins by HPLC analysis
- Format: ADME, cell-free
- Condition context: read-out: Drug degradation
Measure name: metabolised at 0.25 h (%)
Give the value, in units of %, as a plain number.

stdin: Supply recorded metabolised at 0.25 h for CC[C@@]1(OC(=O)CCCOCCOCCONC(=O)CCN2C(=O)CC(SC[C@H](NC(C)=O)C(=O)N[C@H]3CSSC[C@@H](C(=O)O)NC(=O)[C@H](CC(=O)O)NC(=O)[C@@H]4CCCN4C(=O)CNC(=O)[C@H](CCCCN)NC(=O)[C@H](CC(=O)O)NC(=O)CNC(=O)[C@H](CCCNC(=N)N)NC3=O)C2=O)C(=O)OCc2c1cc1n(c2=O)Cc2cc3ccccc3nc2-1 (stereo partly specified) here.
stdout: 1.4

* * *

- Assay: Stability in human plasma assessed as drug hydrolysis after 5 hrs by HPLC analysis
- Format: ADME, cell-free
- Condition context: read-out: Drug degradation
Measure name: metabolised at 5 h (%)
Give the value, in units of %, as a plain number.

stdin: Supply recorded metabolised at 5 h for CC[C@@]1(OC(=O)CCCOCCOCCONC(=O)CCN2C(=O)CC(SC[C@H](NC(C)=O)C(=O)N[C@H]3CSSC[C@@H](C(=O)O)NC(=O)[C@H](CC(=O)O)NC(=O)[C@@H]4CCCN4C(=O)CNC(=O)[C@H](CCCCN)NC(=O)[C@H](CC(=O)O)NC(=O)CNC(=O)[C@H](CCCNC(=N)N)NC3=O)C2=O)C(=O)OCc2c1cc1n(c2=O)Cc2cc3ccccc3nc2-1 (stereo partly specified) here.
stdout: 15.5

* * *

- Assay: Stability in human plasma assessed as parent compound remaining after 18 hrs by HPLC analysis
- Format: ADME, cell-free
- Condition context: read-out: Stability
Measure name: remaining at 18 h (%)
Give the value, in units of %, as a plain number.

stdin: Supply recorded remaining at 18 h for CC[C@@]1(OC(=O)CCCOCCOCCONC(=O)CCN2C(=O)CC(SC[C@H](NC(C)=O)C(=O)N[C@H]3CSSC[C@@H](C(=O)O)NC(=O)[C@H](CC(=O)O)NC(=O)[C@@H]4CCCN4C(=O)CNC(=O)[C@H](CCCCN)NC(=O)[C@H](CC(=O)O)NC(=O)CNC(=O)[C@H](CCCNC(=N)N)NC3=O)C2=O)C(=O)OCc2c1cc1n(c2=O)Cc2cc3ccccc3nc2-1 (stereo partly specified) here.
stdout: 76.4
